tested on: Saccharomyces cerevisiae; experiment: protein stability index of tFT-peptide fusion (C-terminal peptide) (PSI (0-1 scale)); higher = more stable (slower turnover); conditions: genetic background: cdc34-1; temperature: 37 C;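 also: PSI is a weighted mean of sequencing reads over stability bins, variants kept only with over 10 reads, mCherry proximal and sfGFP distal, peptide attached via GGGS linker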
Classification field: fulfilled = protein stability index at or over 0.5; not fulfilled = protein stability index under 0.5.

>>> print(df.to_string())
    sequence_string          label
 0     YTPPISRLLIFT      fulfilled
 1     FAKRVARVAREH      fulfilled
 2     LILFMLLSFLTT  not fulfilled
 3     FLIFFVCLFRWK  not fulfilled
 4     VYGSLPVVVCRI      fulfilled
 5     SPAIRAILAPAG  not fulfilled
 6     RWRLWVGWGVVG      fulfilled
 7     RVVILFVFLVYV  not fulfilled
 8     VFIPFGFCLCFV  not fulfilled
 9     DFVYFPPIPVSS  not fulfilled
10     LASWVVFIWFLW  not fulfilled
11     GSLLWSGWSTCY      fulfilled
12     SGPNASRFYAPI      fulfilled
13     VVTLHISLFYPG  not fulfilled
14     ILISVNRVVLYC  not fulfilled
15     VGGREVSRAGGG      fulfilled
16     FCLFFFPSLFFF      fulfilled
17     LVSYHKMAISSF      fulfilled
18     CRLLYYIPCGLF      fulfilled
19     WWVAGLGSSGGG      fulfilled
20     VACLRLTVYVMG  not fulfilled
21     QDFFYCLLVATS  not fulfilled
22     RGWNGFWVVVVW  not fulfilled
23     WPPPPPSLLLLC  not fulfilled
24     LLVFWRLWWSLS  not fulfilled
25     IKTKGRYKKQRT      fulfilled
26     FLFFRFLVGCCF  not fulfilled
27     ASAYCCMITRLN  not fulfilled
28     HALCLSVYVSAH  not fulfilled
29     WWVVVRGGWCLC  not fulfilled
30     LGLCFFFYSLHS      fulfilled
31     RIKVTRRIIIYA  not fulfilled
32     LHLLFLPFVVCL  not fulfilled
33     CVGRPIALAVRT      fulfilled
34     ILRKTAFRLRVL      fulfilled
35     ARLTNYFVEWLS      fulfilled
36     SRGLVPMANRYC      fulfilled
37     FFSCFFFSVLYR  not fulfilled
38     PLLPLPRFPLFA      fulfilled
39     RDRHFKIQTCIM      fulfilled
40     EWLITLRKCGVA      fulfilled
41     HLYCYNILLVSG  not fulfilled
42     RRVPVHIHFSLF      fulfilled
43     RLGIRCLYLRFI  not fulfilled
44     VSSFLLPFCLLF      fulfilled
45     WVWFGCVLGYRV      fulfilled
46     GGGGGGGGGGVG  not fulfilled
47     FPTLVRKFINAI  not fulfilled
48     RAFFLLYCTLWA  not fulfilled
49     SFCVLLQFCVLV  not fulfilled
50     LFDVLFVFSFIF  not fulfilled
51     FWYIRIRLAVVA  not fulfilled
52     VRVWLLACASKG  not fulfilled
53     WCGSWGVWMRLG  not fulfilled
54     CACAVPFLLLFF  not fulfilled
55     FLLSFFGLVFFW  not fulfilled
56     PACPPLPPRSPS      fulfilled
57     PLLPCRPILFLL      fulfilled
58     FSRFPFVKLSLV      fulfilled
59     GKVGGRMWVWRV      fulfilled
60     FYTYILTVAEAL      fulfilled
61     FVSFTVSFSVVV  not fulfilled
62     RLARRGGGWGPG      fulfilled
63     FFFFFLLFFLRV  not fulfilled
64     VVRLRVWRLLKV  not fulfilled
65     GRAVGLANFTIK      fulfilled
66     RWCLWGTRVWVS  not fulfilled
67     LLAVIVWIVPPA  not fulfilled
68     TFRPWPLHILAL  not fulfilled
69     EQMRRYILVSYV      fulfilled
70     DFIVVIRFIQII  not fulfilled
71     PRFCVYARFHNT      fulfilled
72     SCGVYVVFVLVE  not fulfilled
73     VFVFTFSLSFYC  not fulfilled
74     AIPRWLALLVAH  not fulfilled
75     RARLRFASLRAF      fulfilled
76     VYCQRFMLLFTP      fulfilled
77     FYIWFFRLIYFF  not fulfilled
78     APPFPPPPARSL      fulfilled
79     YYLVKCVYLRTT  not fulfilled

###

system: Saccharomyces cerevisiae; experiment: protein stability index of tFT-peptide fusion (C-terminal peptide) (PSI (0-1 scale)); higher = more stable (slower turnover); settings: genetic background: wild type; temperature: 30 C
Classification field: yes = protein stability index at or over 0.7; no = protein stability index under 0.7.

    sequence_string  label
 0     PSPPVMSPEVAC     no
 1     RGLRVWWGLVGV     no
 2     PPLLPLPPRPLL    yes
 3     FSYCFRLLPSSL     no
 4     RVLPSDSPVAPA     no
 5     RPSPSAQFITCA     no
 6     WAPFGKMVGGPW    yes
 7     VVGPVLTCAVRF     no
 8     GVFVVGLSCSLR     no
 9     FWYIRIRLAVVA     no
10     LFSHLLFPWLSR    yes

###

tested on: Saccharomyces cerevisiae; experiment: protein stability index of tFT-peptide fusion (C-terminal peptide) (PSI (0-1 scale)); higher = more stable (slower turnover); conditions: genetic background: wild type; temperature: 30 C
Classification field: fulfilled = protein stability index at or over 0.2; not fulfilled = protein stability index under 0.2.

In [3]: df
Out[3]:
    sequence_string     target_or_test_system          label
 0     SHWSMQATLQLV  Saccharomyces cerevisiae      fulfilled
 1     SLVIVLPALIFL  Saccharomyces cerevisiae      fulfilled
 2     GVRCRLVIRVLG  Saccharomyces cerevisiae      fulfilled
 3     NFVVYHVAIRVP  Saccharomyces cerevisiae  not fulfilled
 4     LLVFWRLWWSLS  Saccharomyces cerevisiae  not fulfilled
 5     GFGRDHGNDTGP  Saccharomyces cerevisiae      fulfilled
 6     SCCGCGFGLLFC  Saccharomyces cerevisiae      fulfilled
 7     GHYQGVCHRRIC  Saccharomyces cerevisiae  not fulfilled
 8     RPNTFRTRAKAL  Saccharomyces cerevisiae  not fulfilled
 9     VVWLFGVSWCWL  Saccharomyces cerevisiae      fulfilled
10     GVWSLDWFLLVW  Saccharomyces cerevisiae  not fulfilled
11     SRGLVPMANRYC  Saccharomyces cerevisiae  not fulfilled
12     IMWCSSVSEVQW  Saccharomyces cerevisiae      fulfilled
13     RGGVCFVVWCGG  Saccharomyces cerevisiae      fulfilled
14     RSPVVVFAVLLF  Saccharomyces cerevisiae      fulfilled
15     PLLPCRPILFLL  Saccharomyces cerevisiae  not fulfilled
16     AYFPSQRVHHLM  Saccharomyces cerevisiae  not fulfilled
17     ICFPLQIFRILV  Saccharomyces cerevisiae      fulfilled
18     LFRNIFLFVFLI  Saccharomyces cerevisiae      fulfilled
19     CFFPLFLCTAFC  Saccharomyces cerevisiae      fulfilled
20     HILRLVYFIVYE  Saccharomyces cerevisiae      fulfilled
21     LCFVFVLGFFAF  Saccharomyces cerevisiae      fulfilled
22     PPWRPVALLLLA  Saccharomyces cerevisiae  not fulfilled
23     THRAVGIGLRCC  Saccharomyces cerevisiae  not fulfilled
24     GVSFLFVGVSLV  Saccharomyces cerevisiae      fulfilled
25     RAFFLLYCTLWA  Saccharomyces cerevisiae  not fulfilled
26     LNALSHCRAICS  Saccharomyces cerevisiae      fulfilled
27     WVWFGCVLGYRV  Saccharomyces cerevisiae      fulfilled
28     LASWVVFIWFLW  Saccharomyces cerevisiae      fulfilled
29     FLPLFFLPCLSV  Saccharomyces cerevisiae      fulfilled
30     LLFFGFVGSCVF  Saccharomyces cerevisiae      fulfilled

###

# protein stability index listing for each entry below
test system: Saccharomyces cerevisiae; assay: protein stability index of tFT-peptide fusion (C-terminal peptide) (PSI (0-1 scale)); higher = more stable (slower turnover); conditions: genetic background: das1 deletion; temperature: 37 C
property.name: protein stability index

>>> df
    sequence_string     target_or_test_system  observed_measurement
 0     SHPFIRSLVFLA  Saccharomyces cerevisiae                 0.721
 1     FVGVVCILWLVG  Saccharomyces cerevisiae                 0.405
 2     VVRVIWCQFSCF  Saccharomyces cerevisiae                 0.595
 3     VVLWWWVVARDL  Saccharomyces cerevisiae                 0.551
 4     LCFVFVLGFFAF  Saccharomyces cerevisiae                 0.488
 5     LFRNIFLFVFLI  Saccharomyces cerevisiae                 0.468
 6     GLLVFRCINLRC  Saccharomyces cerevisiae                 0.556
 7     GKVGGRMWVWRV  Saccharomyces cerevisiae                 0.726
 8     GSWGGGWRYVGW  Saccharomyces cerevisiae                 0.795
 9     RILSLQFILCKR  Saccharomyces cerevisiae                  0.64
10     CVYGILLLVDVR  Saccharomyces cerevisiae                 0.128
11     RDRHFKIQTCIM  Saccharomyces cerevisiae                 0.717
12     GGGWAVLLWVQV  Saccharomyces cerevisiae                 0.476
13     SLLLLSLCRFVG  Saccharomyces cerevisiae                 0.702
14     VKSAVLLFFLVT  Saccharomyces cerevisiae                 0.537
15     ENKGGNQKRRKK  Saccharomyces cerevisiae                 0.736
16     CSLRLCVRGAIV  Saccharomyces cerevisiae                 0.716
17     ACCGVFFFFFWL  Saccharomyces cerevisiae                 0.414
18     HSPRVLLPLYFR  Saccharomyces cerevisiae                 0.365
19     GWFCLFFVVSTG  Saccharomyces cerevisiae                   0.4
20     LCFVCLWGYLGV  Saccharomyces cerevisiae                 0.528
21     CFVFYALFGFAV  Saccharomyces cerevisiae                 0.484
22     MALAVRVVTCGA  Saccharomyces cerevisiae                 0.363
23     LILFMLLSFLTT  Saccharomyces cerevisiae                 0.419
24     VRMMYSVQVWCG  Saccharomyces cerevisiae                 0.165
25     QDFFYCLLVATS  Saccharomyces cerevisiae                  0.36
26     RLELTRIMIVAI  Saccharomyces cerevisiae                 0.214
27     GWVSCCVWSFLV  Saccharomyces cerevisiae                 0.663
28     VYCQRFMLLFTP  Saccharomyces cerevisiae                 0.581
29     FVSAFVCLLCLV  Saccharomyces cerevisiae                 0.615
30     DNTYRIDIKNKQ  Saccharomyces cerevisiae                 0.689
31     CWLFCACFVRLV  Saccharomyces cerevisiae                 0.333
32     FLLLVVYVSLYS  Saccharomyces cerevisiae                 0.297
33     RPIFAYRPLRFL  Saccharomyces cerevisiae                 0.763
34     LFWTWVLVGVSV  Saccharomyces cerevisiae                 0.283
35     TVLGRDFALSVC  Saccharomyces cerevisiae                 0.543
36     VYGSLPVVVCRI  Saccharomyces cerevisiae                  0.56
37     FLPLFFLPCLSV  Saccharomyces cerevisiae                 0.431
38     WILPASFCVVFL  Saccharomyces cerevisiae                 0.556
39     NFVVYHVAIRVP  Saccharomyces cerevisiae                 0.247
40     FFFFSVHLSFLD  Saccharomyces cerevisiae                 0.365
